Kindly state IC50 at 16 h for each of the entries shown.
Assay: Cytotoxicity against HEK293 cells assessed as reduction in cell viability incubated for 16 hrs by MTT assay
Type: toxicity, cell-based
Details: human

**Q:** Look at this compound and give its reported IC50 at 16 h. C/C=C/C/C(C)=C\[C@H]1C/C=C/C=C/C[C@H](C)/C=C/[C@@H](OC)C/C=C/[C@@H](O)CC(=O)O1
**A:** 11.8 µM

**Q:** Look at this compound and give its reported IC50 at 16 h. CCCC/C(C)=C\[C@H]1C/C=C/C=C/C[C@H](C)/C=C(\C)[C@@H](OC)C/C=C/[C@@H](O)CC(=O)O1
**A:** 11.3 µM

**Q:** Recorded IC50 at 16 h of C/C=C/C/C(C)=C\[C@H]1C/C=C/C=C/C[C@H](C)/C=C(\C)[C@@H](OC)C/C=C/[C@@H](O)CC(=O)O1 , please.
**A:** 20.6 µM

**Q:** Looking for the measured IC50 at 16 h of CCCCC[C@@H]1C/C=C/C=C/C[C@H](C)/C=C(\C)[C@@H](OC)C/C=C/[C@@H](O)CC(=O)O1 , can you help?
**A:** 20.2 µM

###

Assay: Cytotoxicity against HEK293 cells assessed as reduction in cell viability incubated for 16 hrs by MTT assay
Type: toxicity, cell-based
Conditions: human
I'd be grateful if you could share measured IC50 at 16 h for these entries.
Record the value in µM, omitting the unit from your answer.

**Q:** Reported IC50 at 16 h for C/C=C/C/C(C)=C\[C@H]1C/C=C/C=C/C[C@H](C)/C=C(\C)[C@@H](O)C/C=C/[C@@H](O)CC(=O)O1 : what is it?
**A:** 21.6

**Q:** Which value of IC50 at 16 h has been reported for C/C=C/C/C(C)=C\[C@H]1C/C=C/C=C/C[C@H](C)/C=C(\C)[C@@H](OC)CCC[C@@H](O)CC(=O)O1 in the records?
**A:** 23.7

**Q:** Tell me the measured IC50 at 16 h of C/C=C/C/C(C)=C\[C@H]1C/C=C/C=C/C[C@H](C)/C=C(\C)[C@@H](OC)C/C=C/CCC(=O)O1 , please.
**A:** 15.2

**Q:** Item under review: CCCCC[C@H]1C/C=C/C=C/C[C@H](C)/C=C(\C)[C@@H](OC)C/C=C/[C@@H](O)CC(=O)O1 . Reported IC50 at 16 h?
**A:** 14.3

###

Assay: Cytotoxicity against HEK293 cells assessed as reduction in cell viability incubated for 16 hrs by MTT assay
Format: toxicity, cell-based
Conditions: human
Endpoint: IC50 at 16 h

**Q:** Suppose we examine the compound CO[C@H]1C/C=C/[C@@H](O)CC(=O)O[C@@H](c2ccc(C)cc2)C/C=C/C=C/C[C@H](C)/C=C/1C ; what IC50 at 16 h value has been reported?
**A:** 16.5 µM

**Q:** What does the record list as IC50 at 16 h for C/C=C/C/C(C)=C\[C@@H]1C/C=C/C=C/C[C@H](C)/C=C(\C)[C@@H](OC)C/C=C/[C@@H](O)CC(=O)O1 ?
**A:** 18.1 µM

**Q:** So what does the record say about IC50 at 16 h for C/C=C/C/C(C)=C\[C@H]1C/C=C/C=C/C[C@H](C)/C=C(\C)[C@@H](OC)C[C@@H](O)C[C@@H](O)CC(=O)O1 ?
**A:** 20.8 µM

**Q:** Give the measured IC50 at 16 h of C/C=C/C/C(C)=C\[C@H]1C/C=C/C=C/CC/C=C(\C)[C@@H](OC)C/C=C/[C@@H](O)CC(=O)O1 .
**A:** 12.5 µM
